TARGET UNDER TEST: BRD2(2) (Homo sapiens)
Construct: made in house
Sequence (P25440 344-453 limits assumed): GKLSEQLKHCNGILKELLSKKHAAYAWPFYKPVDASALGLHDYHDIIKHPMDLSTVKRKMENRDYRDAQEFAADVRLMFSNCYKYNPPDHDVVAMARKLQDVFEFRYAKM
ASSAY NAME: Protein stability (thermal) shift assay, BRD2(2)
Type: binding
TEST CONTEXT: compound 10 μM, protein 2 μM; average of triplicate
PARAMETER: ΔTm at 10 µM (°C)
Dear colleague, please return just the value in °C, with no unit written.

Q: Hello, I am looking for reported ΔTm at 10 µM with BRD2(2) (Homo sapiens) for COc1cccc(OC)c1-c1nc(N)nc2[nH]cnc12 . Could you help?
Ans: 0.4

Q: Try the compound CCCCOc1cc(Br)cc(-c2nc(N)nc3[nH]cnc23)c1
Ans: 1.7

Q: Lookup Nc1nc(-c2ccc(Oc3ccccc3)cc2)c2nc[nH]c2n1
Ans: 0.5

Q: Same question, COc1ccccc1-c1nc(N)nc2[nH]cnc12 this time
Ans: 1.7

Q: Same lookup for CCOc1ccc(Br)cc1-c1nc(N)nc2[nH]cnc12 , please.
Ans: 1.7

Q: Similarly, COc1ccc(-c2nc(N)nc3c2ncn3C)cc1 ?
Ans: -0.5

Q: Now the compound COc1ccc(F)cc1-c1ncnc2[nH]c(C)nc12
Ans: 0.9

Q: Please give the result for COc1ccc(F)cc1-c1nc(O)nc2[nH]cnc12 too.
Ans: 0.5

Q: // next record COc1ccc(Br)cc1-c1nc(N)nc2c1ncn2CC(C)=O
Ans: 0.0227

Q: Try the compound COc1cccc(OCC(C)C)c1-c1nc(N)nc2[nH]cnc12
Ans: 0.6

Q: Entry to check: COc1ccc(Br)cc1-c1nc(O)nc2[nH]cnc12
Ans: 0.5

Q: Thanks! And COc1ccc(Br)cc1-c1nc(N)nc2c1ncn2C ?
Ans: 0.6

Q: Also COc1cc(COc2ccc(-c3nc(N)nc4[nH]cnc34)cc2Cl)cc(OC)c1 , if possible.
Ans: 0.159

Q: Try the compound Cn1cnc2c(-c3ccc(Oc4ccccc4)cc3)nc(N)nc21
Ans: 0.463

Cited source: paper PMC4403932
